Cited source: ChEMBL document CHEMBL2429763

target: Coagulation factor VII/tissue factor (Homo sapiens); assay: Inhibition of human recombinant soluble tissue factor-factor 7a using H-D-Ile-Pro-Arg-pNA as substrate
Sequence (P08709 61-212 limits assumed): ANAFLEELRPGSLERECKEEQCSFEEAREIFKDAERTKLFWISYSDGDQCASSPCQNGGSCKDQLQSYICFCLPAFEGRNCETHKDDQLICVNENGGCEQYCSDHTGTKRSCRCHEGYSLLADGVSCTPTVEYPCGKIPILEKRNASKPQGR
Sequence (P08709 213-466 limits assumed): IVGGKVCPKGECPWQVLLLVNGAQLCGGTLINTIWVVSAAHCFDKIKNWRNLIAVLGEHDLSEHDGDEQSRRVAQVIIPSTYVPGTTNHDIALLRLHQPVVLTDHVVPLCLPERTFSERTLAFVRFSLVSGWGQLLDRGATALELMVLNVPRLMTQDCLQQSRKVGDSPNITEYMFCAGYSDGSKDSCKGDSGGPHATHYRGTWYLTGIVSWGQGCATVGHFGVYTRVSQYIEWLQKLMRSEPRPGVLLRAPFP
Sequence (P13726 33-295 partner limits assumed): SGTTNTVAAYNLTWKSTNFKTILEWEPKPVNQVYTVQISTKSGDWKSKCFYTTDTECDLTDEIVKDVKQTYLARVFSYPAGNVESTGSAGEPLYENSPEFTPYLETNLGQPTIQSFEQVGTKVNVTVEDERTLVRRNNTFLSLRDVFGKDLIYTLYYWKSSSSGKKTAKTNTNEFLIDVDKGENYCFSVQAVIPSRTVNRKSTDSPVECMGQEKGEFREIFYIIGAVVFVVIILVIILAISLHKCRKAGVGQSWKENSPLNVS
measured attribute: Ki (nM)

a = CCOc1cc(C(Nc2ccc3c(N)nccc3c2)C(=O)NS(=O)(=O)c2cccc(CO)c2)ccc1OC(C)C (centres undefined)
b = CCOc1cc(C(Nc2ccc3cnccc3c2)C(=O)NS(=O)(=O)c2ccccc2S(=O)(=O)CC)ccc1OC(C)C (centres undefined)
c = CCOc1cc([C@@H](Nc2ccc3c(N)nccc3c2)C(=O)NS(=O)(=O)c2cccc(S(N)(=O)=O)c2)ccc1OC(C)C
d = CCOc1cc(C(Nc2ccc3cnccc3c2)C(=O)NS(=O)(=O)c2ccc(S(N)(=O)=O)cc2)ccc1OC(C)C (centres undefined)
Could you arrange the 4 compounds above by Ki, starting with the largest number? The reply should contain the labels ordered as requested.
d, a, b, c
(d: 320 nM, a: 28 nM, b: 6 nM, c: 2.8 nM)

====

test: Clearance in dog at 0.2 mg/kg, iv; assay type: ADME, organism-based, Canis lupus familiaris; parameters: dose 0.2 mg/kg, route intravenous; conditions: in vivo
measured attribute: clearance (mL/min/kg)

P = CCOc1cc([C@@H](Nc2ccc3cnccc3c2)C(=O)NS(=O)(=O)c2ccccc2)ccc1OC(C)C
Q = CCOc1cc([C@@H](Nc2ccc3c(N)nccc3c2)C(=O)NS(=O)(=O)c2ccccc2)ccc1OC(C)C
Param pair: P , Q . Output: the one whose clearance is numerically greater. Could you answer with the label of the item you picked?
Q
(Q: 24 mL/min/kg, P: 9.3 mL/min/kg)

====

test: Oral bioavailability in dog at 0.5 mg/kg; type: ADME, organism-based, Canis lupus familiaris; conditions: in vivo
measured attribute: bioavailability (%)

1 = CCOc1cc([C@@H](Nc2ccc3cnccc3c2)C(=O)NS(=O)(=O)c2ccccc2)ccc1OC(C)C
2 = CCOc1cc([C@@H](Nc2ccc3c(N)nccc3c2)C(=O)NS(=O)(=O)c2ccccc2)ccc1OC(C)C
Lower value for measured bioavailability? Options: 1 , 2 Could you answer with the label of the item you picked?
2
(2: 4%, 1: 36%)

====

assay: Dissociation constant, pKa of the compound; format: physicochemical
measured attribute: pKa

State the recorded pKa for this entry: CCOc1cc(C(Nc2ccc3c(N)nccc3c2)C(=O)NS(=O)(=O)c2ccccc2)ccc1OC(C)C (configuration not stated)
8.9

State the recorded pKa for this entry: CCOc1cc(C(Nc2ccc3cnccc3c2)C(=O)NS(=O)(=O)c2ccccc2)ccc1OC(C)C (configuration not stated)
7.8

====

test: Volume of distribution at steady state in dog at 0.2 mg/kg, iv; format: ADME, organism-based, Canis lupus familiaris; set-up: dose 0.2 mg/kg, route intravenous; conditions: in vivo, read-out: Vdss
measured attribute: Vd (L/kg)

1 = CCOc1cc([C@@H](Nc2ccc3cnccc3c2)C(=O)NS(=O)(=O)c2ccccc2)ccc1OC(C)C
2 = CCOc1cc([C@@H](Nc2ccc3c(N)nccc3c2)C(=O)NS(=O)(=O)c2ccccc2)ccc1OC(C)C
Lower value for measured Vd? Options: 1 , 2 Could you answer with the label of the item you picked?
1

====

biological target: Trypsin (Homo sapiens, UniProt P07477+P07478+P35030); test: Inhibition of trypsin (unknown origin); format: protein assay
measured attribute: Ki

Example results:
State the recorded Ki for this entry: CCOc1cc([C@@H](Nc2ccc3c(N)nccc3c2)C(=O)NS(=O)(=O)c2cccc(S(N)(=O)=O)c2)ccc1OC(C)C
> 5 µM

State the recorded Ki for this entry: CCOc1cc(C(Nc2ccc3c(N)nccc3c2)C(=O)NS(=O)(=O)c2cccc(N)c2)ccc1OC(C)C (centres undefined)
> 5 µM

State the recorded Ki for this entry: CCOc1cc(C(Nc2ccc3c(N)nccc3c2)C(=O)NS(=O)(=O)c2cccc(S(N)(=O)=O)c2)ccc1OC(C)C (centres undefined)
> 5 µM

Could you now consider this next compound?
State the recorded Ki for this entry: CCOc1cc(C(Nc2ccc3c(N)nccc3c2)C(=O)NS(=O)(=O)c2ccccc2)ccc1OC(C)C (centres undefined)
4.7 µM
